- Tested on: croton oil-induced ear dermatitis (edema)
- protocol-summary: Croton oil-induced mouse ear dermatitis: edematous response
- test-context: topical dose 0.10 μmol/cm^2, 6 h
Marks after values point to notes of the source that are not given here.
experimental-endpoint: edema (mg) mean ± SE

// solved cases for edema (mg) mean ± SE follow
{"molecule": "COc1cc(O)ccc1-c1cc2cc(CCCO)ccc2o1 [compound 1]", "value-observed": "6.0 ± 0.3 ^a mg"}
{"molecule": "COc1ccc(-c2cc3cc(CCCO)ccc3o2)c(O)c1 [compound 5]", "value-observed": "5.2 ± 0.3 ^a mg"}
{"molecule": "COc1ccc2c(c1)c(CC(=O)O)c(C)n2C(=O)c1ccc(Cl)cc1 [indomethacin, reference compound]", "value-observed": "5.2 ± 0.4 ^a mg"}

(Q) Recorded edema (mg) mean ± SE of C/C=C/c1ccc2oc(-c3ccc(O)cc3)cc2c1 [compound 8] , please.
(A) 5.9 ± 0.3 ^a mg

(Q) Then what about the molecule C/C=C/c1ccc2oc(-c3ccc(O)cc3OC)cc2c1 [compound 9, rataniaphenol III] ?
(A) 6.1 ± 0.2 mg

(Q) C/C=C/c1ccc2c(c1)[C@@H](C)[C@H](c1ccc(O)cc1)O2 [compound 7, (+)-conocarpan] , same question.
(A) 5.2 ± 0.4 ^a mg
